Test system: OVCAR-4 ovarian
Experiment: NCI-60 one-dose screen, 48 h
Details: 10 µM unless noted
About 83,000 compounds went through this panel and 20% of them were active in at least one assay; those are over-represented in the sample as a whole. The source made the active and inactive calls. Rule for the calls: active = growth percent below 10; inactive = the rest.
Form entry, call: pick from T for active, F for inactive

These recorded examples may help you get a feel for the data.
Compound | Discrete Label
CCOC(=O)C1=C(C)NC(SCc2nnc(-c3ccc(Cl)cc3)o2)=NC1c1ccc(Cl)cc1Cl (stereo not drawn) | F
COc1cc2c(cc1OC)-c1ccc3cc4c(cc3c1N(CCCN(C)C)C2)OCO4 | F
O=C(NCc1cccnc1)c1cc(-c2csc3c(=O)cc(N4CCOCC4)oc23)cc2c1OCCO2 | F

Please let me know the test result on file for CCCCCCCCc1cc[n+](CC(=O)c2ccc(Br)cc2)cc1 .
F

Lab log entry: CCCCNC(=O)NS(=O)(=O)c1ccc(N2N=C(c3ccc(C)cc3C)CC2c2ccc(N(C)C)cc2)cc1 (stereo not drawn) — outcome as called in the assay?
F

I would be grateful if you could indicate the recorded call for COc1cc(/C=C2\C=C(c3ccccc3)N(CCc3ccccc3)C2=O)cc(OC)c1OC .
F

###

System: OVCAR-4 ovarian
Test: NCI-60 one-dose screen, 48 h
Details: 10 µM unless noted
The panel holds about 83,000 compounds, 20% with a hit somewhere; the sample as a whole holds those more often. Active and inactive are the calls of the source. Rule for the calls: active = growth percent below 10; inactive = the rest.
The reply should name one outcome from 1 for active, -1 for inactive

How did this test come out for CCCCC1COc2cccc3c(SCC(=O)N(C)c4cccc(Cl)c4)cc[n+]1c23 (stereo not given) ?
-1

For O=C(/C=C/C12c3ccccc3C(c3ccccc31)C1C(=O)NC(=O)C12)c1ccc(Cl)cc1 (stereo not given) , what call appears in the results of this test?
-1

# outcome recorded in this test, key = O=C(NCCOCCOCCNc1cccc2c1C(=O)N(C1CCCNC1=O)C2=O)c1cc2c(o1)C(=O)c1ccccc1C2=O (stereo not given)
1

Please indicate how the test categorized Nc1c(-c2nc3ccc(Br)cc3c(=O)[nH]2)nnn1-c1ccccc1 .
1

Short answer needed: outcome of this test for NC(=O)c1c(NC(=O)c2ccc(C(F)(F)F)cc2Cl)sc2c1CCC(=O)C2 ?
1

###

Tested on: BT-549 breast
Assay: NCI-60 one-dose screen, 48 h
Details: 10 µM unless noted
This is part of a sample that, as a whole, favours compounds with a hit. Of some 83,000 tested, about 20% had one in any assay. Calls of active or inactive are those of the source. The calls were made as follows: active = growth percent below 10; inactive = the rest.
Select the correct class. Options are True = active, False = inactive and nothing else.

These recorded examples may help you get a feel for the data.
Compound | Measured Target | Discrete Label
CCNCCNc1cc(-c2ccc(F)cc2)c(C#N)c2nc3ccccc3n12 | BT-549 breast | False
CC(C)(C)OC(=O)N1Cc2cc3ccccc3nc2C1CO (configuration not stated) | BT-549 breast | False
C=CC(=O)N[C@@H](Cc1ccc(-c2cc(Cl)cc(Cl)c2)cc1)[C@@H](O)[C@H](O)C(=O)O | BT-549 breast | False
CN(C)CCn1cc(-c2ccc3c(Nc4ccc(CC(=O)Nc5cccc(F)c5)cc4)ncnc3c2)cn1 | BT-549 breast | True
COc1cc2c(cc1OC)-c1ccc3cc4c(cc3c1N(CCCn1ccnc1)C2)OCO4 | BT-549 breast | False

I would be grateful if you could indicate the recorded call for COc1cc2ccccc2cc1C(=O)NC(=S)Nc1ccc(-c2nc3ccccc3[nH]2)cc1 .
False

I would be grateful if you could indicate the recorded call for O=c1cc(-c2ccc(OCc3ccccc3)cc2)oc2c(I)c(OCc3ccccc3)cc(OCc3ccccc3)c12 .
False

Test call for this compound, please: COC(=O)/C(=C\c1ccc(OC)cc1)C(=O)N1c2ccccc2Sc2ccccc21
True

Test call for this compound, please: C[C@H]1[C@H](C)CC[C@]2(C(=O)N3CCN(C)CC3)CC[C@]3(C)C(=CC[C@@H]4[C@@]5(C)C/C(=C/c6cccnc6)C(=O)C(C)(C)[C@@H]5CC[C@]43C)[C@H]12
True

Call for entry Cc1ccc(S(=O)(=O)Nc2sccc2-c2nc(-c3ccccc3)no2)cc1 :
False

Check the results log: what was the call for CCn1c(Sc2nnc(NC(=O)CCN3CCCC3)s2)nc2c1c(=O)n(C)c(=O)n2C ?
False

src = PubChem BioAssay (NCI)
